Answer each item with its documented Activity.
ASSAY METHOD TEXT: Effect on ambient level of [3H]GABA in Wistar rat synaptosomes assessed as [3H]GABA level at 100 uM preincubated for 20 mins (reference value: 14.20 +/- 1.03%)
Format: ADME, subcellular, Synaptosome
One number for each entry, in %.

For orientation, consider the following solved cases.
INSERT INTO results (molecule, recorded_metric, reported) VALUES
  ('NC[C@@H](CC(=O)O)C(F)(F)F', 'Activity', 13.35),
  ('NC[C@@](O)(CC(=O)O)C(F)(F)F', 'Activity', 15.55),
  ('CC(C)C[C@H](CN)CC(=O)O', 'Activity', 14.1);

Tell me Activity reported for NCC(CC(=O)O)C(F)(F)C(F)F (racemic)
14.63

The values you see were collected from ChEMBL document CHEMBL4177522.
